Please go through the items and note down their GI50.
- Tested on: OVCAR-4
- testProtocol: NCI tumour cell line growth inhibition, 48 h
The source made the active and inactive calls. No stated cut-off is given here; in the data, active = GI50 up to about 1.1 µM and inactive = higher.

Prompt: Sample CC1=NC(=Cc2ccccc2O)C(=O)N1n1c(-c2ccccc2)nc2ccccc2c1=O — what was its GI50?
Response: 27.5 µM (inactive)

Prompt: Requested read-out: GI50. Entry: CCCCCCCCCCCCCCCCC1=CC(=O)C=C(OC)C1=O
Response: > 100 µM (inactive)

Prompt: What does the record list as GI50 for CC1=C2C(O)C(C(C)CO)C(O)CC2(C)C(O)CC1 (stereo unspecified) ?
Response: > 100 µM (inactive)

Prompt: For the molecule shown here, CC(C)=CCC[C@@H](C)C1=C(O)C(=O)C(C)=C(Nc2ccccc2F)C1=O , give the reported GI50.
Response: 15 µM (inactive)

Prompt: Look at this molecule and give its reported GI50. Cc1cccc(C)c1NC(=O)CCCC(=O)C(C#N)c1ccccc1 (stereo unspecified)
Response: > 100 µM (inactive)

Prompt: Name the recorded GI50 for O=C1[C@H](Cl)[C@H]2c3cc4ccccc4nc3Oc3ccccc3N12 .
Response: 45.5 µM (inactive)
